- System: Cotton Aphid (aphis gossypii), mixed life stages
- methodSummary: Cotton aphid (Aphis gossypii), mixed life stages, leaf-dip test on cotton plants
- Type: in vivo
- assayContext: 120 h, 300 ppm, infested cotton cotyledons dipped 3 seconds, after 5 days, read-out: mortality of cotton aphid in comparison with untreated controls
// values below are reported mortality at 300 ppm

{"structureString": "Cc1cccc(S(=O)(=O)N2CCCC2=O)c1C#N", "systemName": "Cotton Aphid (aphis gossypii), mixed life stages", "mortality at 300 ppm": "≥ 86%"}
{"structureString": "Cc1cccc(S(=O)(=O)NC(=O)C(C)C)c1C#N", "systemName": "Cotton Aphid (aphis gossypii), mixed life stages", "mortality at 300 ppm": "≥ 86%"}
{"structureString": "Cc1cccc(S(=O)(=O)/N=C/N(C)C)c1C#N", "systemName": "Cotton Aphid (aphis gossypii), mixed life stages", "mortality at 300 ppm": "≥ 86%"}
{"structureString": "C=CC(=O)N(CC)S(=O)(=O)c1cccc(C)c1C#N", "systemName": "Cotton Aphid (aphis gossypii), mixed life stages", "mortality at 300 ppm": "≥ 86%"}
{"structureString": "CCN(C(=O)NC(C)C)S(=O)(=O)c1cccc(C)c1C#N", "systemName": "Cotton Aphid (aphis gossypii), mixed life stages", "mortality at 300 ppm": "≥ 86%"}
